Where these numbers come from: ChEMBL document CHEMBL3259650

System: Staphylococcus aureus
Assay: Antibacterial activity against Staphylococcus aureus ATCC 6538p
Assay type: functional
Listing: log10 of MLC of selected compounds
Please be aware that the numbers have been log10-transformed from MLC in µg/mL.

// below: answered compounds
{"columns": ["Compound", "Target of assay", "log10 of MLC"],
 "data": [
  ["CCN1C(=O)C(Cc2ccc(Cl)cc2)(Cc2ccc(Cl)cc2)C(O)c2cc(Cl)ccc21 (stereo unspecified)", "Staphylococcus aureus", 1.70],
  ["O=C1Nc2ccccc2C(O)C1(Cc1ccccc1Cl)Cc1ccccc1Cl (stereo unspecified)", "Staphylococcus aureus", 2.30],
  ["C[C@H]1COc2c(N3CCN(C)CC3)c(F)cc3c(=O)c(C(=O)O)cn1c23.C[C@H]1COc2c(N3CCN(C)CC3)c(F)cc3c(=O)c(C(=O)O)cn1c23.O", "Staphylococcus aureus", 0.49],
  ["O=C1N(Cc2ccc(Cl)cc2)c2ccc(Cl)cc2C(O)C1(Cc1ccc(Cl)cc1)Cc1ccc(Cl)cc1 (stereo unspecified)", "Staphylococcus aureus", 2.00],
  ["O=C1Nc2ccc(Cl)cc2C(O)C1(Cc1ccc(Cl)cc1)Cc1ccc(Cl)cc1 (stereo unspecified)", "Staphylococcus aureus", 1.10],
  ["COc1ccc(CC2(Cc3ccc(OC)cc3)C(=O)Nc3ccccc3C2O)cc1 (stereo unspecified)", "Staphylococcus aureus", 2.30]
]}

Read the entry O=C1Nc2ccccc2C(O)C1(Cc1ccc(Cl)cc1)Cc1ccc(Cl)cc1 (stereo unspecified) and write its reported log10 of MLC.
2.00

###

System: Staphylococcus aureus
Assay: Antibacterial activity against Staphylococcus aureus ATCC 6538p assessed as growth inhibition after 24 hrs by micro dilution method
Type: functional
Measured MIC of individual entries

Please indicate MIC recorded for COc1ccc2c(c1)C(O)C(Cc1ccccc1)(Cc1ccccc1)C(=O)N2 (stereo not given)
100 µg/mL

Indicate the recorded MIC value for this compound: CCOC(=O)CN1C(=O)C(Cc2ccccc2)(Cc2ccccc2)C(O)c2ccccc21 (stereo not given)
> 200 µg/mL

// fetch MIC given entry Cc1ccc2c(c1)C(O)C(Cc1ccccc1)(Cc1ccccc1)C(=O)N2 (stereo not given)
50 µg/mL

Please report the measured MIC for COc1cccc2c1NC(=O)C(Cc1ccccc1)(Cc1ccccc1)C2O (stereo not given)
100 µg/mL

Indicate the recorded MIC value for this compound: CN1C(=O)C(Cc2ccccc2)(Cc2ccccc2)C(O)c2ccccc21 (stereo not given)
100 µg/mL
